Source: PubChem BioAssay (NCI)

System: MOLT-4 leukemia
methodSummary: NCI tumour cell line growth inhibition, 48 h
observationType: TGI

Some solved cases for reference:
- compound: "CCCSc1cc(Cl)c(C)cc1S(=O)(=O)n1cc[nH]c1=O"
  assayedTarget: "MOLT-4 leukemia"
  observationType: "TGI"
  result: "> 100 µM"
- compound: "COc1cc2[nH]c(C(=O)c3cc(OC)c(OC)c(OC)c3)c(N)c2cc1C#CCO"
  assayedTarget: "MOLT-4 leukemia"
  observationType: "TGI"
  result: "> 100 µM"
- compound: "CC1CC(N)=Nc2ccccc2N1Cc1ccccc1 (stereo unspecified)"
  assayedTarget: "MOLT-4 leukemia"
  observationType: "TGI"
  result: "18.4 µM"
- compound: "C=C1C(=O)O[C@@H]2[C@H]1CC[C@H](C)[C@]1(O)CCC(=O)[C@@]21C"
  assayedTarget: "MOLT-4 leukemia"
  observationType: "TGI"
  result: "> 10 µM"
- compound: "CC12CN(CC[N+](C)(C)C)CC1(C)C1CCC2O1 (stereo unspecified)"
  assayedTarget: "MOLT-4 leukemia"
  observationType: "TGI"
  result: "> 100 µM"
- compound: "CCCCOC(=O)CN1C(=O)c2ccccc2C1=O"
  assayedTarget: "MOLT-4 leukemia"
  observationType: "TGI"
  result: "> 100 µM"
- compound: "COC1Cc2c(C)c(OC(C)=O)c3cccnc3c2O1 (stereo unspecified)"
  assayedTarget: "MOLT-4 leukemia"
  observationType: "TGI"
  result: "43.1 µM"
- compound: "COC(=O)/C=C\\c1ccc2c(c1)CC1(C2)Cc2ccc(/C=C/C(=O)OC)cc2C1 (stereo unspecified)"
  assayedTarget: "MOLT-4 leukemia"
  observationType: "TGI"
  result: "> 31.6 µM"
- compound: "O=C1c2ccccc2C(=O)c2c(OCC3CO3)ccc(OCC3CO3)c21 (stereo unspecified)"
  assayedTarget: "MOLT-4 leukemia"
  observationType: "TGI"
  result: "0.95 µM"
- compound: "O=[N+]([O-])C(/C(Cl)=C(/Cl)N1CCCCC1)=C1\\NCCO1"
  assayedTarget: "MOLT-4 leukemia"
  observationType: "TGI"
  result: "> 100 µM"

# input TGI for COc1cc(CC2CCc3nc(N)nc(N)c3C2)cc(OC)c1OC (stereo unspecified) ?
# output > 100 µM

====

System: HCC-2998 colon
methodSummary: NCI tumour cell line growth inhibition, 48 h; in the data active = GI50 below about 0.43 µM; inactive = the rest
Give one outcome, nothing more. List: Y for active, N for inactive

Field: example entries. Status: answers known.
- compound: "NC1=NC(=O)N2CC12 (stereo unspecified)"
  labelValue: "N"
- compound: "CN1CCN(C(=O)c2ccc(NC(=O)Nc3ccc(N(C)c4ccnc(Nc5ccc(CS(C)(=O)=O)cc5)n4)cc3)cc2)CC1"
  labelValue: "N"
- compound: "Nc1nc(N)c2nc(CNc3ccc(C(=O)CC(CCC(=O)O)C(=O)O)cc3)cnc2n1 (stereo unspecified)"
  labelValue: "Y"
- compound: "COc1cc(N2CCC(N3CCN(C)CC3)CC2)ccc1Nc1ncc(Cl)c(Nc2ccccc2P(C)(C)=O)n1"
  labelValue: "N"

# input Recorded call for CCC1CCc2nc3sc(C(=O)Nc4ccccc4F)c(N)c3cc2C1 (stereo unspecified) ?
# output N

# input Record: O=C1c2ccccc2C(=O)N1/N=C\c1ccc(Br)cc1
# output N

# input // next record C#C[C@@]1(O)[C@@H](CO)O[C@@H](n2cc(Cl)c3c(N)ncnc32)[C@@H]1O
# output Y

# input What about Cc1cc(NC(=O)c2ccc(NS(=O)(=O)CCO)cc2N2CCC3(CC2)CC3)nc(N2CCC(F)(F)CC2)n1 ?
# output N

# input Follow-up entry: COc1ccc(OC)c(/C=C/c2nnc(Nc3ccc(Cl)cc3)o2)c1
# output N

# input Follow-up item: CCOC(=O)[C@H](CSSc1ncnc2cc[nH]c12)NC(=O)[C@@H](C)c1ccc2cc(OC)ccc2c1
# output N

# input Request: C[C@H]1CCC/C=C/[C@@H]2C[C@H](O)C[C@H]2[C@H](O)[C@H](S(=O)c2ccc(O)cc2)CC(=O)O1 (stereo partly specified)
# output Y

====

System: MOLT-4 leukemia
methodSummary: NCI tumour cell line growth inhibition, 48 h
observationType: TGI

Would you please look over these solved cases?
- molecule: "CC1(C)CC23C(=O)N(c4ccccc4)C(=Nc4ccccc4)NC2=CC(C#N)=C(C#N)C3O1 (centres undefined)"
  TGI: "> 100 µM"
- molecule: "COc1ccc2[nH]c3c4c(c5cc(C(C)(C)C)ccc5c3c2c1)C(=O)N(c1ccccc1)C4=O"
  TGI: "> 100 µM"
- molecule: "c1cncc(C2c3[nH]c4ccccc4c3CCN2CCCN2CCCCC2)c1 (centres undefined)"
  TGI: "> 100 µM"
- molecule: "C[C@H](c1ccc(Cl)cc1N)N1C(=O)c2cc(I)ccc2N(CCCN2CCN(C)CC2)C(=O)[C@@H]1c1ccc(Cl)cc1"
  TGI: "3.59 µM"

# input Could you share which TGI value was measured for O=C(OCc1ccccc1)N1CCNCCNCC1 ?
# output > 100 µM

# input Then this molecule: CC(C)=CCNc1ncnc2c1ncn2CCC(=O)OC(C)(C)C
# output > 100 µM

# input Proceed to CC(=O)N1NC(c2ccccc2)=CC(=O)/C1=C/C(=O)c1ccccc1
# output > 100 µM

# input Similarly, C/C(=C\c1ccn(-c2ccc(N)c(C(F)(F)F)c2)n1)[C@@H]1C[C@@H]2O[C@]2(C)CCC[C@H](C)[C@H](O)[C@@H](C)C(=O)C(C)(C)[C@@H](O)CC(=O)O1 ?
# output 19.8 µM

# input Similarly, C/C(CC(=O)CCCC(=O)Nc1ccc(Cl)cc1Cl)=N/NC(=O)CC#N ?
# output > 100 µM

====

Tested on: SF-539 CNS
methodSummary: NCI tumour cell line growth inhibition, 48 h
# TGI per record follows

Worked cases, answers included:
- compound: "O=C(OCc1ccccc1)N1CCNCCNCC1"
  TGI: "> 100 µM"
- compound: "O=C1c2ccccc2C(=O)N1/N=C\\c1ccc(Br)cc1"
  TGI: "> 100 µM"
- compound: "Cc1cc(N(CCC#N)CCC#N)ccc1/C=C1/CN(N2C(=O)/C(=C/c3ccc(N(CCC#N)CCC#N)cc3C)N=C2c2ccccc2)C(c2ccccc2)=N1"
  TGI: "> 100 µM"
- compound: "CCC1CCc2nc3sc(C(=O)Nc4ccccc4F)c(N)c3cc2C1 (stereo not given)"
  TGI: "> 100 µM"
- compound: "Cc1ccc(S(=O)(=O)Nn2c(-c3ccccc3)c(C#N)c(-c3ccc(Cl)cc3)c(C#N)c2=O)cc1"
  TGI: "55.7 µM"
- compound: "CCOC(=O)c1sc2nc(SC)nc(Nc3ccc4c(c3)OCCCO4)c2c1N"
  TGI: "> 100 µM"
- compound: "CN1C(=O)n2c(nc3ccccc32)C(N=[N+]=[N-])(N=[N+]=[N-])C1=O (stereo not given)"
  TGI: "> 100 µM"
- compound: "COc1cc(CC2CCc3nc(N)nc(N)c3C2)cc(OC)c1OC (stereo not given)"
  TGI: "> 60.4 µM"

# input Value lookup for TGI; key = C/C(=N\O)c1sc(-n2nc(-c3ccccc3)cc2-c2ccccc2)nc1C
# output 16.7 µM

# input Consider next the compound O=S(=O)(/C=C/C=C/S(=O)(=O)c1ccccc1)c1ccccc1 in the same way.
# output 4.43 µM

====

Tested on: SK-MEL-2 melanoma
methodSummary: NCI tumour cell line growth inhibition, 48 h; in the data active = GI50 below about 0.43 µM; inactive = the rest
Respond using exactly one of the listed classes: 1 (yes) for active, 0 (no) for inactive

Example entries begin here.
- chemicalStructure: "CN1CCN(C(=O)c2ccc(NC(=O)Nc3ccc(N(C)c4ccnc(Nc5ccc(CS(C)(=O)=O)cc5)n4)cc3)cc2)CC1"
  labelValue: "0 (no)"
- chemicalStructure: "COc1ccc(-c2cc(-c3ccc(Nc4nc(Nc5ccc(Cl)cc5)nc(Nc5ccc(Cl)cc5)n4)cc3)no2)cc1"
  labelValue: "0 (no)"
- chemicalStructure: "COc1cccc(-c2nn(-c3ccccc3)cc2-c2ccnc(NCCNS(=O)(=O)c3ccc(C(F)(F)F)cc3)c2)c1"
  labelValue: "0 (no)"
- chemicalStructure: "O=C1C=C(Nc2ccccc2)c2ncccc2C1=O"
  labelValue: "0 (no)"
- chemicalStructure: "CCOC(=O)[C@H](CSSc1ncnc2cc[nH]c12)NC(=O)[C@@H](C)c1ccc2cc(OC)ccc2c1"
  labelValue: "0 (no)"
- chemicalStructure: "COc1cc2c(c(OC)c1OC)-c1ccc([O-])c(=O)cc1[C@@H](NC(C)=O)CC2.COc1cc2c(c(OC)c1OC)-c1ccc([O-])c(=O)cc1[C@@H](NC(C)=O)CC2.[Cu+2]"
  labelValue: "0 (no)"
- chemicalStructure: "CN(C)CC/C=C1\\c2ccccc2Sc2ccc(Cl)cc21"
  labelValue: "0 (no)"

Attention now turns to another entry.
# input Could you please tell me the result logged for COc1cc2c(c(OC)c1OC)-c1ccc(OC)c(=O)cc1[C@@H](NC(=O)CCl)CC2 in this assay?
# output 1 (yes)
